Molecular target: human ether-à-go-go-related gene (hERG) potassium channel (human, UniProt Q12809)
Sequence (Q12809 whole entry, looked up): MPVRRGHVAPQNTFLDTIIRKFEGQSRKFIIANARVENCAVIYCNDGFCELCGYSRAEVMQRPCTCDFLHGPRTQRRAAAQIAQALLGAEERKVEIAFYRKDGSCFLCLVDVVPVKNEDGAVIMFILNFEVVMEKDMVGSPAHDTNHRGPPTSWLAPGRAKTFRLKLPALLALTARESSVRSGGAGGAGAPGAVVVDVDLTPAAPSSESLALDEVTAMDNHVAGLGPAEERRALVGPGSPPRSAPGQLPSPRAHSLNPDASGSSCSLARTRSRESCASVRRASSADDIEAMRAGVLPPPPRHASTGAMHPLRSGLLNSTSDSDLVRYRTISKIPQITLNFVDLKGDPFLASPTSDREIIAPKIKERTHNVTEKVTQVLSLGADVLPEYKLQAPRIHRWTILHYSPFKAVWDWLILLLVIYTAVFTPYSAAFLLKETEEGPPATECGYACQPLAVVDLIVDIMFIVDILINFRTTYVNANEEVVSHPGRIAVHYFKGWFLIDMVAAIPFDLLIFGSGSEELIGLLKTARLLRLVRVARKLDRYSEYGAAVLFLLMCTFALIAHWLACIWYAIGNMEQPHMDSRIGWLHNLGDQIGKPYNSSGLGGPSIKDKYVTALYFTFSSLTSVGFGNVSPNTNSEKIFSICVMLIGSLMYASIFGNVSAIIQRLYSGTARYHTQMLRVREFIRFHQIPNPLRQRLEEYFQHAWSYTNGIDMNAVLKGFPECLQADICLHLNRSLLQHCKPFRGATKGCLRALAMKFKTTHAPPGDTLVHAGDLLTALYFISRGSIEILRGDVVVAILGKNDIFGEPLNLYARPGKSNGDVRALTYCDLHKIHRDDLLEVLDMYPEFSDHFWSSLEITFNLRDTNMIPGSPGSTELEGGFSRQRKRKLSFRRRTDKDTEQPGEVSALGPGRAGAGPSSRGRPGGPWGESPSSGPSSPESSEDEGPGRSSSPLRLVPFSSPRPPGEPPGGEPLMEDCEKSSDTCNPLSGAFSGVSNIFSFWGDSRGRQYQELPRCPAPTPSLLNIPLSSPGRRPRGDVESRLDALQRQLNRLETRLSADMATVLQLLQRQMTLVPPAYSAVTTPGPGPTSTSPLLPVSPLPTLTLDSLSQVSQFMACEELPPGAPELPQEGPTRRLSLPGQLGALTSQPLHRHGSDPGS
Assay: primary screen, population patch clamp on CHO cells stably expressing hERG; higher = less effect of the substance
Hit rate of the full screen: of about 310,000 compounds, about 2,200 (0.71%) showed an effect of 50% or more. Effects have a minus sign here. Shown is part of a subset that was picked to be rich in strong results.
outcomeMeasure: hERG current change (%, negative = inhibition) at 1uM
Record the result as number plus unit.

Looking for the measured hERG current change (%, negative = inhibition) at 1uM of C=CCNC(=O)c1cc2c(=O)n3cc(C)ccc3nc2nc1NCC1CCCO1 (stereo not drawn) , can you help?
-82%

Looking for the measured hERG current change (%, negative = inhibition) at 1uM of COc1ccc(/C=C2\Oc3cc(OC(=O)N4CCOCC4)ccc3C2=O)cc1 , can you help?
3.7%

Looking for the measured hERG current change (%, negative = inhibition) at 1uM of Cc1ccc2nc(SCC(=O)NC3CCCCC3)nc(=O)n2c1 , can you help?
-4.63%

Looking for the measured hERG current change (%, negative = inhibition) at 1uM of Cc1ccc(-c2nn(-c3ccccc3)cc2C(=O)NCC2CCCO2)cc1 (stereo not drawn) , can you help?
1.49%

Looking for the measured hERG current change (%, negative = inhibition) at 1uM of COc1cccc(CN2CCNC(=O)C2CC(=O)N2CCCCO2)c1OC (stereo not drawn) , can you help?
7.47%

Origin of values: paper PMC4336329
